Numbers sourced from patent US5750530A.

Item-by-item account of % Inhibition
Target: PAI-1 (Homo sapiens, UniProt P05121)
Sequence (P05121 24-402): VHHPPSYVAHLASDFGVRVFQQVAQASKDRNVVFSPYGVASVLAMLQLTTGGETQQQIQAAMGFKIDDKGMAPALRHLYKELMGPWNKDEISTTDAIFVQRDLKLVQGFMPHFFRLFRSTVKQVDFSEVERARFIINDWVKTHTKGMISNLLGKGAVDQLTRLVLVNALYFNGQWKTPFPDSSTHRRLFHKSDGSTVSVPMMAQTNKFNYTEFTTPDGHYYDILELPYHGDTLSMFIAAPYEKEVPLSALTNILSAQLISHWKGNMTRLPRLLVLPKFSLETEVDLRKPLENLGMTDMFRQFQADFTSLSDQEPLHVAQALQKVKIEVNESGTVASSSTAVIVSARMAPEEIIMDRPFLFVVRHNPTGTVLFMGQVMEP
Experiment: biochemical
Type: biochemical
Conditions: 5 μm
Structures can show the parent of a compound that is named as a salt.
Write it as a number; the unit % goes unstated.

IN: What value of measured % Inhibition is listed for CN(C)CCSc1ccc(/C=c2\[nH]c(=O)/c(=C/c3ccc(C(C)(C)C)cc3)[nH]c2=O)cc1 [Compound 5440] ?
OUT: 11

Further cases:
IN: What value of measured % Inhibition is listed for CN(C)CCSc1sc(/C=c2\[nH]c(=O)/c(=C/c3ccccc3)[nH]c2=O)cc1[N+](=O)[O-] [Compound 5403] ?
OUT: 26

IN: What value of measured % Inhibition is listed for Cc1ccc(/C=c2\[nH]c(=O)/c(=C/c3ccc(SCCN(C)C)s3)[nH]c2=O)cc1 [Compound 5460.HCl] ?
OUT: 31

IN: What value of measured % Inhibition is listed for COC(=O)c1ccc(/C=c2\[nH]c(=O)/c(=C/c3ccc(SCCN(C)C)s3)[nH]c2=O)cc1 [Compound 5477] ?
OUT: 10
